# method-notes: in vivo
# measurement-parameters: female, mouse, po
reported-endpoint: bioavailability (%)
Please respond with the number in % and leave the unit unwritten.

Name the reported bioavailability value associated with the molecule COc1cc(-c2nn(CCN3CCC(N(C)C)CC3)c3ncnc(N)c23)ccc1CC(=O)OC(C)(C)C [Compound 565] 52

###

# measurement-parameters: PBS, aqueous buffer
In this section, each of the compounds is paired with its reported solubility.

Name the reported solubility value associated with the compound COc1cc(-c2nn(CCN3CCC(N(C)C)CC3)c3ncnc(N)c23)ccc1NC(=O)OC(C)(C)C > 100 mg/mL

Name the reported solubility value associated with the compound COc1cc(-c2nn(CCN3CCC(N(C)C)CC3)c3ncnc(N)c23)ccc1CC(=O)OC(C)(C)C > 100 mg/mL

Name the reported solubility value associated with the compound Cc1nc(Nc2ncc(C(=O)Nc3c(C)cccc3Cl)s2)cc(N2CCN(CCO)CC2)n1 [Dasatinib, reference compound] < 0.1 mg/mL

From: patent US10294227B2
